- measurement-target: T1, recombinant human CD40 monomer (human, UniProt P25942 21-193)
- T1 construct: also called huCD40-monomer; soluble human CD40
- T1 sequence (P25942 21-193 limits assumed): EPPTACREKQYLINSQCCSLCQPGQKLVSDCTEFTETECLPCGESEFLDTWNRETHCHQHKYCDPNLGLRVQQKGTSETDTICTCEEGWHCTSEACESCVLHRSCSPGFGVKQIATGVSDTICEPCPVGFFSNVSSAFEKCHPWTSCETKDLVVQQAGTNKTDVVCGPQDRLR
- assay-explanation: BLI (Octet RED); antibody supernatant captured on protein A sensors, huCD40-monomer in solution
List of Kd values.
Provide the reading as a plain figure in nM.

Record excerpt, results attached:
# binder, observed-result
records = [
    ("12D6-22 (antibody, human IgG1, kappa, V domains shown, Humanized; IgG1f) VH: QVQLVQSGAEVKKPGASVKVSCKASGYTFTGYNMNWVRQAPGQGLEWMGNIDPYYGNTNYNQKFKGRVTMTTDTSTSTAYMELRSLRSDDTAVYYCARLGLQLYAMDYWGQGTTVTVSS VL: DIVMTQTPLSLPVTPGEPASISCRSSQSLVHSNANTYLHWYLQKPGQSPQLLIYKLTNRFFGVPDRFSGSGSGTDFTLKISRVEAEDVGVYYCSQSIHVPWTFGGGTKVEIKR", 3.6),
    ("12D6 (parental) (antibody, V domains shown, Mouse variable domains; also called 1802.3716.12D6.B1.E3; mAb 12D6) VH: EVQLQQSGPELEKPGASVKMSCKASGYSFTGYNMNWVKQSNGKSLEWIGNIDPYYGNTNYNQKFKGKATLTVDKSSSTAYLQLKSLTSEDSAVYYCARLGLQLYAMDYWGQGTSVTVSS VL: DVVMTQTPLSLPVSLGDQASISCRSSQSLVHSNGNTYLHWYLQKPGQSPNLLIYKLTNRFFGVPDRFSGSGSGTDFTLKISRVEAEDLGVYFCSQSIHVPWTFGGGTKLEIK", 3.6),
]

According to the records, this binder 19G3-23 (antibody, human IgG1, kappa, name in Kabat numbering, V domains shown, Heavy chain inferred from the identical VH description (VH3-21 S94R) of 19G3-11; Light chain is the VKII O11 CDR graft of 19G3-11 with G29A) VH: EVQLVESGGGLVKPGGSLRLSCAASGFTFSSYAMSWVRQAPGKGLEWVSEISGGGSYTYYPDTVTGRFTISRDNAKNSLYLQMNSLRAEDTAVYYCASRAYWGQGTLVTVSS VL: DIVMTQTPLSLPVTPGEPASISCRSSQSIVHSNANTYFEWYLQKPGQSPQLLIYKVSNRFSGVPDRFSGSGSGTDFTLKISRVEAEDVGVYYCFQGSHVPYTFGGGTKVEIKR displays Kd of 1300
